# test target: GAL4-PPARγ chimera (ligand-binding domain of the murine PPARγ) (Mus musculus, UniProt P37238)
# Construct: transient in CV-1 cells with UAS-tk-SPAP reporter
# Sequence (P37238 204-505, change not shown): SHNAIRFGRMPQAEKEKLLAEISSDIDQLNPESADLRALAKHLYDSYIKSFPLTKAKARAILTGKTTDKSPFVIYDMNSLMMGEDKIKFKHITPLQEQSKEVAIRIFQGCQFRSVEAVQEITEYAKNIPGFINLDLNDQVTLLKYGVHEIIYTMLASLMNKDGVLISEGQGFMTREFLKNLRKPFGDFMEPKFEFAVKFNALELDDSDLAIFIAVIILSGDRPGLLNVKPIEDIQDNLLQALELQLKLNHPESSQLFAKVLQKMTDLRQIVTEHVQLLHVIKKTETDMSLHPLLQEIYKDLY
# assay procedure: Transient cotransfection assay: SPAP reporter
# Assay type: cell-based
# experimental context: CV-1 cells, SPAP reporter, test compound at 10^-5 M, 24 h; read-out: Fold Activation
measurement kind: fold induction at 10 µM
# print the numeric value only

Solved entries:
{"columns": ["molecule", "fold induction at 10 µM"],
 "data": [
  ["CC1(COc2ccc(CC3SC(=O)NC3=O)cc2)CCCCC1 (stereo not drawn)", 46.1],
  ["CCCCCC(C)c1ccc(C2=CCCC2CCCCCCC(=O)O)cc1 (stereo not drawn)", 27],
  ["CCCCCC(O)C=CC1C(=O)CC(O)C1CC=CCCCC(=O)O (stereo not drawn)", 23.8],
  ["Cc1cccc(Nc2cc(Cl)nc(SCC(=O)O)n2)c1C", 25.7],
  ["CC1(C)CCC(C)(C)c2cc3ncc(-c4ccccc4C(=O)O)cc3cc21", 25.9]
]}

The reported value for O=C(O)CCCCCCC1=C(c2ccc(C(O)C3CCCC3)cc2)CCC1=O (stereo not drawn) in terms of fold induction at 10 µM is 24.6

Entry O=C1NC(=O)C(Cc2ccc3c(c2)CCC(Cc2ccccc2)O3)S1 (stereo not drawn) ; fold induction at 10 µM = 18.2

fold induction at 10 µM for `CC(C)Oc1cc(CCCCC(=O)O)c(C=CC(=O)CCCCCC(=O)O)c(OC(C)C)c1` is 11.3

Lab note: measured fold induction at 10 µM of `CN(C)c1ccc(Cc2ccc(N(C)C)cc2CC(=O)O)cc1` was 17.8

fold induction at 10 µM in this record for `O=C(O)Cc1ccc2[nH]c(-c3ccccc3)c(CCc3ccccc3)c2c1` : 21.2

`CCCCc1nc(Cl)c(C(=O)NCC(=O)OCC)n1Cc1ccc2oc(-c3ccccc3C(=O)O)c(Br)c2c1` yielded fold induction at 10 µM of 23.9

Looking up `CCCc1c(-c2ccccc2)[nH]c2ccc(CC(=O)O)cc12` , I found its fold induction at 10 µM recorded as 21.7
